Form field: inhibition (one value per entry).
# test.method.notes: inhibitors of the yeast RAM network, primary screen, dse1pr::URA3 reporter, 5-FOA selection (AID 868);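 note: 0% = DMSO-only wells with no growth and 100% = 10 µM 1-NA-PP1 full growth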
# conditions: S. cerevisiae dse1pr::URA3 reporter, 5-FOA growth OD615, 2 d; at 50 µM; stronger effect = higher value; analog-sensitive cbk1-as2 kinase mutant strain
In all, about 190,000 compounds went through this assay and about 3,500 (1.8%) were called active. The sample as a whole holds a higher share of actives than the screen did.
# value in %; strip the unit string

Guide cases for inhibition, answers given:
[
  {
    "compound": "O=C1OC(OC(=O)c2ccccc2Br)C(N2CCOCC2)=C1Cl (stereo not given)",
    "quantity.unit": "%",
    "observed.measurement": 1.63
  },
  {
    "compound": "CC(C)(C)N(Cc1ccccc1)C(=O)COC(=O)CCc1c[nH]c2ccccc12",
    "quantity.unit": "%",
    "observed.measurement": 10.3
  },
  {
    "compound": "COC(=O)c1ccccc1Sc1c(/C=N/OCc2ccc(Cl)cc2)c(C(F)(F)F)nn1C",
    "quantity.unit": "%",
    "observed.measurement": 8.63
  },
  {
    "compound": "Cc1ccc(C(=O)NCCNC(=O)c2ccccc2)cc1",
    "quantity.unit": "%",
    "observed.measurement": 0.24
  },
  {
    "compound": "NS(=O)(=O)c1ccc(NC(=O)COC(=O)CCc2c[nH]c3ccccc23)cc1",
    "quantity.unit": "%",
    "observed.measurement": 1.13
  }
]

INPUT: GET /values?readout=inhibition&item= Cc1ccc(C(=O)c2c(NC(=O)c3ccccc3)sc(C)c2C)cc1
OUTPUT: 12.9

INPUT: What value of inhibition has been recorded for this entry: Cn1nc(C(F)(F)F)c(C(=O)Nc2cccc(C(F)(F)F)c2)c1SCc1ccc(Cl)cc1
OUTPUT: 7

INPUT: // query inhibition value for entry O=C(CC1C(=O)NCCN1Cc1ccc(-c2ccccc2)cc1)NCc1ccncc1 (stereo not given)
OUTPUT: -0.27

INPUT: Give the measured inhibition of O=C(Nc1nc(-c2cccnc2)cs1)c1ccccc1F .
OUTPUT: -0.37

INPUT: Can you look up the measured inhibition of Cc1ccc(C(=O)c2c(NC(=O)c3ccncc3)sc3c2CCCC3)cc1 for me?
OUTPUT: 1.55

----------
# test.method.notes: inhibitors of the yeast RAM network, primary screen, dse1pr::URA3 reporter, 5-FOA selection (AID 868);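 note: 0% = DMSO-only wells with no growth and 100% = 10 µM 1-NA-PP1 full growth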
# conditions: S. cerevisiae dse1pr::URA3 reporter, 5-FOA growth OD615, 2 d; at 50 µM; analog-sensitive cbk1-as2 kinase mutant strain
About 3,500 (1.8%) of roughly 190,000 compounds were called active.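 How the source made its calls: active means inhibition above a set limit, 3 SD over mean compound inhibition (cut at about 8.4% in these data); inactive means the rest.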 For the sample, actives were picked, then their nearest neighbours and some compounds at random.
Field 'call' accepts true (1) (active), false (0) (inactive)

[
  {
    "molecule": "Cc1cc(C)cc(C(=O)N(CCc2ccccc2)C2=CC3CCC(C2)N3C)c1 (centres undefined)",
    "class.label": "false (0)"
  },
  {
    "molecule": "C/C=C(\\C)C(=O)NCCN1C2=NC[C@H](Cc3ccc(O)cc3)N2C[C@@H]1Cc1ccc(OC)cc1",
    "class.label": "false (0)"
  },
  {
    "molecule": "COCCNC(=O)C(c1ccc(O)cc1)N(C(=O)CCC(=O)Nc1nccs1)c1ccc(C)cc1 (centres undefined)",
    "class.label": "false (0)"
  },
  {
    "molecule": "COc1ccc(CC(=O)Nc2c3c(nn2-c2cccc(Cl)c2)CS(=O)C3)cc1 (centres undefined)",
    "class.label": "false (0)"
  },
  {
    "molecule": "CCc1ccc(/C=C2\\SC(N3CCOCC3)=NC2=O)cc1",
    "class.label": "false (0)"
  }
]

INPUT: For this molecule, state the assay outcome: Cc1noc(NS(=O)(=O)c2ccc(N/C=C/C(=O)c3ccccc3)cc2)c1C
OUTPUT: true (1)

INPUT: Could you check what this test reported for CCCCc1nc(NCc2ccccc2)c(C#N)c2c1CCCC2 ?
OUTPUT: true (1)

INPUT: Check the results log: what was the call for O=C(O)/C=C/C(=O)NNc1ccc([N+](=O)[O-])cc1 ?
OUTPUT: false (0)

INPUT: Recorded test call requested for Cc1noc(NS(=O)(=O)c2ccc(NC(=O)C34CCC(CC3)C4)cc2)c1C
OUTPUT: false (0)

INPUT: Per the records of this test, what outcome belongs to CCCCc1nc(NCCN)c(C#N)c2c1CSC(C)(C)C2 ?
OUTPUT: false (0)

----------
Collected inhibition values appear next to each entry.
# test.method.notes: inhibitors of the yeast RAM network, primary screen, dse1pr::URA3 reporter, 5-FOA selection (AID 868);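 note: 0% = DMSO-only wells with no growth and 100% = 10 µM 1-NA-PP1 full growth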
# conditions: S. cerevisiae dse1pr::URA3 reporter, 5-FOA growth OD615, 2 d; at 50 µM; stronger effect = higher value; analog-sensitive cbk1-as2 kinase mutant strain
Hit rate of the full screen: of about 190,000 compounds, about 3,500 (1.8%) were called active. This is one part of a sample in which actives are shown more often than they occur.
Give a bare numeral; the unit % is implied.

Some solved cases for reference:
[
  {
    "compound": "CC(=O)c1ccc(S(=O)(=O)Nc2ccc(C(=O)NCC(c3ccccc3)N(C)C)cc2)cc1 (stereo not drawn)",
    "quantity.unit": "%",
    "inhibition": 1.76
  },
  {
    "compound": "CC1Cc2ccccc2N1C(=O)c1cc2sccc2n1Cc1ccccc1 (stereo not drawn)",
    "quantity.unit": "%",
    "inhibition": 2.9
  },
  {
    "compound": "Cc1ccc(-n2nc(C)c(/C=N/NC(=O)c3cccs3)c2Cl)cc1",
    "quantity.unit": "%",
    "inhibition": 5.29
  },
  {
    "compound": "CCCCC(C(=O)OCC(=O)c1ccc(OC)cc1)N1C(=O)c2ccccc2C1=O (stereo not drawn)",
    "quantity.unit": "%",
    "inhibition": 12.2
  },
  {
    "compound": "Cc1ccc(CN2CCN(Cc3cn(C)nc3-c3ccccc3)CC2CCO)o1 (stereo not drawn)",
    "quantity.unit": "%",
    "inhibition": 0.52
  }
]

INPUT: Could you tell me which inhibition is on file for O=C(NCCc1ccco1)c1nn(Cc2ccccc2)c(=O)c2ccccc12 ?
OUTPUT: 11.2

INPUT: Reported inhibition for COC(=O)C1=C(C(=O)OC)C(c2cc([N+](=O)[O-])ccc2O)c2sc(=O)[nH]c2S1 (stereo not drawn) : what is it?
OUTPUT: -0.84

INPUT: What does the data say about its inhibition? Entry: COC(=O)c1ccc(NC(=S)Nc2cccc(C)n2)cc1
OUTPUT: 3.21

INPUT: Recorded inhibition for O=C(/C=C/c1ccc(Cl)c([N+](=O)[O-])c1)c1cccnc1 , please?
OUTPUT: 1.34

INPUT: Returns the measured inhibition for the input compound. Input: O=C(c1cc2sccc2n1Cc1ccc(F)cc1)N1CCc2ccccc21
OUTPUT: 2.22

INPUT: Look up inhibition: COc1ccc2c(c1)CCC/C2=N\OC(=O)c1ccccc1F
OUTPUT: 0

INPUT: What does the record list as inhibition for CC1CCN(c2ccc([N+](=O)[O-])cc2C(N)=O)CC1 ?
OUTPUT: 1.09

INPUT: Query (compound): O=C1Cc2ccccc2Sc2ccc(Cl)cc21 ; field requested: inhibition
OUTPUT: 9.58

----------
# test.method.notes: inhibitors of the yeast RAM network, primary screen, dse1pr::URA3 reporter, 5-FOA selection (AID 868);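 note: 0% = DMSO-only wells with no growth and 100% = 10 µM 1-NA-PP1 full growth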
# conditions: S. cerevisiae dse1pr::URA3 reporter, 5-FOA growth OD615, 2 d; at 50 µM; analog-sensitive cbk1-as2 kinase mutant strain
About 3,500 (1.8%) of roughly 190,000 compounds were called active.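 Rule for the calls: active = inhibition above a set limit, 3 SD over mean compound inhibition (cut at about 8.4% in these data); inactive = the rest.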 Many of the other results were omitted from the sample, so actives are more common in it than they were.
Please reply with one of these outcomes: t for active, f for inactive

[
  {
    "molecule": "NC(=O)COc1ccc(NC(=O)c2ccccc2-c2ccccc2)cc1",
    "class.label": "f"
  },
  {
    "molecule": "Cc1cc(/C=C2/SC(=O)N(CC(=O)OC(C)C)C2=O)c(C)n1C",
    "class.label": "f"
  },
  {
    "molecule": "COc1ccc(NC(=O)COC(=O)CNC(=O)C2CCCCC2)cc1",
    "class.label": "f"
  },
  {
    "molecule": "CCN=C1S/C(=C\\c2cc(Br)ccc2OCC(=O)OCC)C(=O)N1CC",
    "class.label": "t"
  },
  {
    "molecule": "COc1cccc(CC2(CO)CCCN(CC3=Cc4cc(OC)ccc4OC3)C2)c1 (centres undefined)",
    "class.label": "f"
  }
]

INPUT: # outcome recorded in this test, key = CC(=O)c1c(Nc2ccccc2)sc(C(=O)c2ccccc2)c1C
OUTPUT: t

INPUT: Recorded test outcome, item CCOC(=O)CC1C(=O)NCCN1C(=O)COc1ccc(Br)cc1C (centres undefined)
OUTPUT: f

INPUT: Outcome? CCN(CC)CC1(O)CCN(C(=O)c2ccc(Cl)c(Cl)c2)CC1
OUTPUT: f

INPUT: Please indicate how the test categorized CCCCCOc1ccc(CSC2=NCCN2)cc1[N+](=O)[O-] .
OUTPUT: f

INPUT: Recorded test call requested for CCOC(=O)c1c(NC(=O)c2ccc(Br)o2)sc2c1CCCC2
OUTPUT: f

INPUT: In this assay, the call recorded for CCC(C)(C)c1ccc(Oc2ccc(NC(=O)COC(=O)C3=COCCO3)cc2)cc1 was what?
OUTPUT: t

INPUT: Record lookup: outcome of this test for COc1ccc(-c2noc(-c3ccc(C)cc3)n2)cc1 ?
OUTPUT: f

INPUT: State the result this test recorded for Cc1ccsc1C1C(C#N)=C(N)OC2=C1C(=O)CC(C)C2 (centres undefined) .
OUTPUT: f

INPUT: State the result this test recorded for CCc1c(C)sc(NC(=O)c2ccc(Br)o2)c1C(=O)OC .
OUTPUT: t

INPUT: Hi, sorry to bother you, what did the test record for CCOC(=O)c1sc2nc(C)nc(SCC(N)=O)c2c1C ?
OUTPUT: f

INPUT: Which outcome was assigned to COc1ccc(C2C(C(C)=O)=C(O)C(=O)N2CCc2c[nH]c3ccccc23)cc1 (centres undefined) in this test?
OUTPUT: f

INPUT: Can you look up the reported call for CCC(=O)Nc1sc(C(=O)Nc2ccccc2)c(C)c1C(=O)OC for me?
OUTPUT: f

INPUT: Hi team, can someone confirm the assay call for COc1ccc(-c2noc(CSc3ccc(C)cc3)n2)cc1 ?
OUTPUT: f

INPUT: Identify the outcome logged in this assay for the molecule shown: COc1cc(C2C(C(=O)c3ccc(C)o3)=C(O)C(=O)N2Cc2cccnc2)ccc1O (centres undefined)
OUTPUT: f

INPUT: // outcome(item) with item = COc1cc(NC(=S)N2CCCC(C)C2)cc(OC)c1OC (centres undefined)
OUTPUT: f
